# target.entity: T1, CRBN, Q96SW2;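 note: pooled lentiviral library of zinc finger degron-EGFP fusions in mCherry-positive Jurkat cells, FACS-sorted after compound exposure, with degron abundance counted by next-generation sequencing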
# T1 chain: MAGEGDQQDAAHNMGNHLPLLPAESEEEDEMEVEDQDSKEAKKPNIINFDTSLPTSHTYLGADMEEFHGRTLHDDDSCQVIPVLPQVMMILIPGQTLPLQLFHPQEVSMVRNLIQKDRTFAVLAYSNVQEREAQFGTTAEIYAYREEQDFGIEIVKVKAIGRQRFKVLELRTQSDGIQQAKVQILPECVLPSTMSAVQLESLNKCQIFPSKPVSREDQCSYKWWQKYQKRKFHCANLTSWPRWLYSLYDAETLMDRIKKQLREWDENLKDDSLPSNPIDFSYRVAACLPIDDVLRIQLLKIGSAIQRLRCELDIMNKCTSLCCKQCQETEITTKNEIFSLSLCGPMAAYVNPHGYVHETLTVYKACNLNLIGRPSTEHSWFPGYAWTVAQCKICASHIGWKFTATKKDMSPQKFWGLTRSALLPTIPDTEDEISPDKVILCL
# protocol.description: log2 fold change of degron read counts, EGFP-low vs EGFP+ sorted cells (limma voom), compound-induced degradation; higher = more compound-induced degradation of the degron-EGFP fusion; degrons are variants of IKZF1/3 zinc finger 2; compound dose not given here
# settings: Jurkat; 18 h; compound: compound 22 (5-morpholino-thalidomide)
Over roughly 8,300 sequences, “log2 fold change of degron read counts, EGFP-low vs EGFP+ sorted cells (limma voom), compound-induced degradation” has its median near -1.1; the highest 2% begin near 3.2. Shown is part of a subset that was picked to be rich in the highest values.
Binning of log2 fold change of degron read counts into classes: small value = under -2, mid value = from -2 up to 2, large value = 2 and over

Below are worked cases with known answers.
FCCEVCGACFTQKGNLLRHIKL [46F_47C_49E_50V_52G_53A_54C_55F_67L_, Q9UKT9]; large value
FQCDQCGAWFTQKGNLLRHIKL [46F_47Q_49D_50Q_52G_53A_54W_55F_67L_, Q9UKT9]; small value
LTCPICGFECTQKGNLLRHIKL [46L_47T_49P_50I_52G_53F_54E_55C_67L_, Q9UKT9]; mid value

Inquiry: State the band of FRCPQCGAYFTQKGNLLRHIKL [46F_47R_49P_50Q_52G_53A_54Y_55F_67L_, Q9UKT9]
Reply text: mid value

Inquiry: State the band of LYCPICGFSCTQKGNLLRHIKL [46L_47Y_49P_50I_52G_53F_54S_55C_67L_, Q9UKT9]
Reply text: large value

Inquiry: State the band of LWCPICGFSCTQKGNLLRHIKL [46L_47W_49P_50I_52G_53F_54S_55C_67L_, Q9UKT9]
Reply text: large value

Inquiry: State the band of FLCNQCGRKFTQKGNLLRHIKL [46F_47L_49N_50Q_52G_53R_54K_55F_67L_, Q9UKT9]
Reply text: small value

Inquiry: State the band of FDCEVCGACFTQKGNLLRHIKL [46F_47D_49E_50V_52G_53A_54C_55F_67L_, Q9UKT9]
Reply text: mid value

Inquiry: State the band of FNCEVCGACFTQKGNLLRHIKL [46F_47N_49E_50V_52G_53A_54C_55F_67L_, Q9UKT9]
Reply text: mid value

Inquiry: State the band of FHCEVCGACFTQKGNLLRHIKL [46F_47H_49E_50V_52G_53A_54C_55F_67L_, Q9UKT9]
Reply text: large value

Inquiry: State the band of FGCEVCGACFTQKGNLLRHIKL [46F_47G_49E_50V_52G_53A_54C_55F_67L_, Q9UKT9]
Reply text: large value
